// data source = patent US20220259202A1

studyTarget: human TLR8 (Homo sapiens, UniProt Q9NR97)
Construct: host or cells: HEK293
Sequence (Q9NR97 27-1041): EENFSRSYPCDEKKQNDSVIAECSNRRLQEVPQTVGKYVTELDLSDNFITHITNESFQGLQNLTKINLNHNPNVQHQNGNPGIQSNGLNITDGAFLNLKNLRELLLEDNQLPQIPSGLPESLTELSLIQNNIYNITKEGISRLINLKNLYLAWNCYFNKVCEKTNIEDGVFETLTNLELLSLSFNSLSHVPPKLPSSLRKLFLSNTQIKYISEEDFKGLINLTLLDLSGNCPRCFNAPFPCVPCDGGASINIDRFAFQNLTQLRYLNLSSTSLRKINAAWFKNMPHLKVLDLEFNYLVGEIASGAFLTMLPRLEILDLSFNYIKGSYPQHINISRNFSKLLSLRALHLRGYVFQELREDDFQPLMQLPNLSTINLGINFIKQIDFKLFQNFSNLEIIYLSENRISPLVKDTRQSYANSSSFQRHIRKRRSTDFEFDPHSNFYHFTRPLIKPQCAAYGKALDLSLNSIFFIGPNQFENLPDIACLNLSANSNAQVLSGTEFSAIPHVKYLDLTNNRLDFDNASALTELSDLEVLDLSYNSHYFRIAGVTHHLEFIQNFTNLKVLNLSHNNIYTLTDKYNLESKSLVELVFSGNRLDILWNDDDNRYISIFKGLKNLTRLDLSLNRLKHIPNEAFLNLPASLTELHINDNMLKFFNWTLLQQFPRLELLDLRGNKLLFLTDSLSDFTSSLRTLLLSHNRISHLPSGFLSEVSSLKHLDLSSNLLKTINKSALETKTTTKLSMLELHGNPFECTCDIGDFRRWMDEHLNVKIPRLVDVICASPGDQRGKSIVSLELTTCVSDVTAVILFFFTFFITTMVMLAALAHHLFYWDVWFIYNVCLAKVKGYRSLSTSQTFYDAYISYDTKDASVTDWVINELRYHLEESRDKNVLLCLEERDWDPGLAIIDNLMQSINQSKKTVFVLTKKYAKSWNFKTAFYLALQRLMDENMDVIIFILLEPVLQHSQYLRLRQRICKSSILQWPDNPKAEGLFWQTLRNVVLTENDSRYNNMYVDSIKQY
testDetails: HEK293 SEAP reporter assay, human TLR8 (Biological Example 1)
Format: cell-based
measurementSetup: HEK293-humanTLR8 reporter cells, 4 hrs; read-out: hTLR8 EC50
Procedure: In this example, the activity of the TLR7 agonists to activate human TLR7, hTLR7 (or human TLR8, hTLR8, or mouse TLR7, mTLR7) pathway was evaluated on HEK293 reporter cells transfected with human TLR7 (or mouse TLR7 or human TLR8) and an inducible SEAP (secreted embryonic alkaline phosphatase) reporter gene. The SEAP reporter gene is placed under the control of the IFN-β minimal promoter fused to five NF-κB and AP-1-binding sites. […] Levels of SEAP was determined with HEK-Blue Detection medium. […]
property: EC50 (nM)

smilesStructure	property	obsValue
CCCCn1nc2c(N)nc3ccccc3c2c1Cc1ccc(CN)cc1	EC50	820

* * *

studyTarget: human TLR7 (Homo sapiens)
Construct: host or cells: HEK293
Sequence (Q9NYK1 27-1049): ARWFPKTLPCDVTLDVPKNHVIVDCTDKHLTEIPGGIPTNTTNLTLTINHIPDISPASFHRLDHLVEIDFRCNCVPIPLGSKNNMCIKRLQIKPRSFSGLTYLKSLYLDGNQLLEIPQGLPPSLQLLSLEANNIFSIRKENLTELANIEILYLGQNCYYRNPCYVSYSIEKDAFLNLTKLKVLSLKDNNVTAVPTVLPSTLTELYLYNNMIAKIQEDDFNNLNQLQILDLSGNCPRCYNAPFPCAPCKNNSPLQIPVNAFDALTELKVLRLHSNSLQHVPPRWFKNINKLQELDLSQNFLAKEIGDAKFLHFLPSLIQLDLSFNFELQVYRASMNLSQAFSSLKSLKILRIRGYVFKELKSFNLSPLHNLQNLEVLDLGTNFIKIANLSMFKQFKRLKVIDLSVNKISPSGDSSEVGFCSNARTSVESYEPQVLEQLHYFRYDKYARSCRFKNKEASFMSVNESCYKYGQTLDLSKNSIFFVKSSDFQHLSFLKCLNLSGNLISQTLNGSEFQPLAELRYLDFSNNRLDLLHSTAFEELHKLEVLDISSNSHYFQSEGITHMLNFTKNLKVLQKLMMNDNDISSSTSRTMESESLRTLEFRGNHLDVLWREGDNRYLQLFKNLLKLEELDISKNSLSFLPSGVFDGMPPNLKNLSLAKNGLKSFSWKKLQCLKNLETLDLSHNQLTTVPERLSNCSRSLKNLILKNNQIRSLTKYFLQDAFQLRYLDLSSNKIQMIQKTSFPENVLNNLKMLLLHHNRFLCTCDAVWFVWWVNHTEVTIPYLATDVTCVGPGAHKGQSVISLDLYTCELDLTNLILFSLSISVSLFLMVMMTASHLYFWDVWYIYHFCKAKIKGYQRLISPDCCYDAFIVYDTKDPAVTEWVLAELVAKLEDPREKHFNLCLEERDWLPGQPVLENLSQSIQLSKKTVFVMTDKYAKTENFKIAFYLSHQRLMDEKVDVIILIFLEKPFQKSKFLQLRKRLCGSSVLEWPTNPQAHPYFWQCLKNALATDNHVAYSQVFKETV
testDetails: HEK293 SEAP reporter assay, other TLRs (Biological Example 3)
Format: cell-based
measurementSetup: 16 hrs, * = Estimated

compound	EC50, nM
CCCCn1nc2c(N)nc3ccccc3c2c1Cc1ccc(CN)cc1 [Compound 1]	61.4

* * *

Reported values of pEC50 for individual entries
studyTarget: mouse TLR3 (Mus musculus)
Sequence (Q99MB1 26-905): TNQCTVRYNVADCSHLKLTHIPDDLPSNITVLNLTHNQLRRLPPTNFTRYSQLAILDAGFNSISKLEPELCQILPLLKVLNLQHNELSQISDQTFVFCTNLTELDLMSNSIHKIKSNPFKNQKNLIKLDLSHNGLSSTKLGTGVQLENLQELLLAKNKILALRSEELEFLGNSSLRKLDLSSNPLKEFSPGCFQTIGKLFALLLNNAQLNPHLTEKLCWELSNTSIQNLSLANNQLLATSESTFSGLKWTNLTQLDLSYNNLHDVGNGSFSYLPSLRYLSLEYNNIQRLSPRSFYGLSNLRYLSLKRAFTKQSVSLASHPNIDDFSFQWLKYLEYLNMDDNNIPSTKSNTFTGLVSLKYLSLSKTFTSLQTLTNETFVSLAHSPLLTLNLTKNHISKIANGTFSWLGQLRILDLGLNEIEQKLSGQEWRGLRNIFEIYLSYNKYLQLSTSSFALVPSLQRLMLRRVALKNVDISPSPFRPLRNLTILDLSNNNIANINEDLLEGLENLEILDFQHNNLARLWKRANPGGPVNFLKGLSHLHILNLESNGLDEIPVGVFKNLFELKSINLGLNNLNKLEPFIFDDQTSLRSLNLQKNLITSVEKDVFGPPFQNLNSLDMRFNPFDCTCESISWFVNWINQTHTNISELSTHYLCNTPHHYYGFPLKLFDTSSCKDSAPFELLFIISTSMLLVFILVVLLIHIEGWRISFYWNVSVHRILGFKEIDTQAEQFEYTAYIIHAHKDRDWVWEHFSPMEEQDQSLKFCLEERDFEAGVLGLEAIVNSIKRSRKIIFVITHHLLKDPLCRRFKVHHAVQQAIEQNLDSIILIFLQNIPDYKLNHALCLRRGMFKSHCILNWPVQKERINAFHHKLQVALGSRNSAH
testDetails: HEK293 SEAP reporter assay, other TLRs (Biological Example 3)
measurementSetup: 16 hrs, up to 1 μM
pEC50: −log10 of the molar value.
property: pEC50

compound	studyTarget	obsValue
CCCCn1nc2c(N)nc3ccccc3c2c1Cc1ccc(CN)cc1 [Compound 1]	mouse TLR3 (Mus musculus)	< 6.00
CCCCc1nc2c(N)nc3ccccc3c2n1Cc1ccc(CN)cc1 [Compound A, reference compound]	mouse TLR3 (Mus musculus)	< 6.00

* * *

studyTarget: mouse TLR7 (Mus musculus, UniProt P58681)
Construct: host or cells: HEK293
Sequence (P58681 27-1050): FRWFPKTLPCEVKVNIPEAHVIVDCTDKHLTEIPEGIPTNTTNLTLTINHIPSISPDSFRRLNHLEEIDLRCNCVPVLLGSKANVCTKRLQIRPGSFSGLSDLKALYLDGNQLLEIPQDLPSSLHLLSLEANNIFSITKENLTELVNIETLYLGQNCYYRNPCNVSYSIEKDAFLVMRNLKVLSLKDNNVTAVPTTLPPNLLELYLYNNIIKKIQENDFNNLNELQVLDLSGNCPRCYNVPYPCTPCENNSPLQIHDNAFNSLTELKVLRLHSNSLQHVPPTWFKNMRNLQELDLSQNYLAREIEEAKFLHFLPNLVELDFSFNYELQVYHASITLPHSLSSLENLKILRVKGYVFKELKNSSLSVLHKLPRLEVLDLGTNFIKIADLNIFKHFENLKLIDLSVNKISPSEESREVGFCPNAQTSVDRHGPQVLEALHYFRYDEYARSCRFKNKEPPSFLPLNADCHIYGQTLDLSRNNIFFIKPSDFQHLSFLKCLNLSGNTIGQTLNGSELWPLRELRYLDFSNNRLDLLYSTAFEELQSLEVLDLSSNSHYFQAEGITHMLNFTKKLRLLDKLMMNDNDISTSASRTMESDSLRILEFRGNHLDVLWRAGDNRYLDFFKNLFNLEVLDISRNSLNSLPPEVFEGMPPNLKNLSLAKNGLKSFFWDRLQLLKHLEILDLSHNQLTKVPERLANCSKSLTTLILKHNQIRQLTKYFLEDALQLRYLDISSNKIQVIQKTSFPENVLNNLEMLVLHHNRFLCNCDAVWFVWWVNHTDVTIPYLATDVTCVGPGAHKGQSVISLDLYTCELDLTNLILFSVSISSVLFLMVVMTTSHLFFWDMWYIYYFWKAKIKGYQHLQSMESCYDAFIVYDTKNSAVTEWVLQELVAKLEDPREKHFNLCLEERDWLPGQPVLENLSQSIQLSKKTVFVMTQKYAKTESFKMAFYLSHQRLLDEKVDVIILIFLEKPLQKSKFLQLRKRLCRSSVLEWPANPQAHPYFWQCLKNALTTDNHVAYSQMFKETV
testDetails: HEK293 SEAP reporter assay, mouse TLR7 (Biological Example 1)
Assay type: cell-based
measurementSetup: HEK293-mouseTLR7 reporter cells, 4 hrs; read-out: mTLR7 EC50
property: EC50 (nM)

smilesStructure	property	obsValue
CCCCn1nc2c(N)nc3ccccc3c2c1Cc1ccc(CN)cc1	EC50	29.1

* * *

studyTarget: human TLR9 (Homo sapiens, UniProt Q9NR96)
Construct: host or cells: HEK293
Sequence (Q9NR96 26-1032): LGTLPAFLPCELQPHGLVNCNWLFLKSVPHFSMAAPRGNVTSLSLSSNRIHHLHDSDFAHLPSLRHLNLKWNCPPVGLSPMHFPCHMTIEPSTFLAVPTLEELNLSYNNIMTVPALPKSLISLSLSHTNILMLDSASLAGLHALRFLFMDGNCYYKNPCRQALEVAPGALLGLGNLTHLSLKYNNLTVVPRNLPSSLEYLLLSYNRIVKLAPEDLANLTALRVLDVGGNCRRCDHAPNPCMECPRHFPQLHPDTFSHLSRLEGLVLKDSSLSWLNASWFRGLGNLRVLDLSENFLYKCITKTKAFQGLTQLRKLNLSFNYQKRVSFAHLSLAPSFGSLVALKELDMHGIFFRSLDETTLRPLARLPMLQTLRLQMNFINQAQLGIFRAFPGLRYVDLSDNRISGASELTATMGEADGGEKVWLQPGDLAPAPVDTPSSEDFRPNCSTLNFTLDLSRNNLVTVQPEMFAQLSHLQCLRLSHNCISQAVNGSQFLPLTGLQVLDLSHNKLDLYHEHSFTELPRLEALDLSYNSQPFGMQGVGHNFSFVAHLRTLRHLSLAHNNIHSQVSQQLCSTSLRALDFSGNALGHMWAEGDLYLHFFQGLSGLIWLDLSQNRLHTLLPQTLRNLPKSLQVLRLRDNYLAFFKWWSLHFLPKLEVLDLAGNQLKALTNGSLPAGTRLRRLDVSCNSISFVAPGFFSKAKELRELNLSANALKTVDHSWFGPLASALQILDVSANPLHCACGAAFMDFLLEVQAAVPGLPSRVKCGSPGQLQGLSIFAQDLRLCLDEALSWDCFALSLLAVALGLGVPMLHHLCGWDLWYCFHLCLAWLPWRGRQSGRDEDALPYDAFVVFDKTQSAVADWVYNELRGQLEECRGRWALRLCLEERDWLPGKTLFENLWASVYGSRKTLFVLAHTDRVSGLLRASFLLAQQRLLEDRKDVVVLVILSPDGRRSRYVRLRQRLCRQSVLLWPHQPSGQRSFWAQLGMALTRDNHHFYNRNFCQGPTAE
testDetails: HEK293 SEAP reporter assay, other TLRs (Biological Example 3)
Type: cell-based
measurementSetup: 16 hrs, up to 1 μM
property: EC50

molecule	property	obsValue
CCCCn1nc2c(N)nc3ccccc3c2c1Cc1ccc(CN)cc1	EC50	> 1000 nM
CCCCc1nc2c(N)nc3ccccc3c2n1Cc1ccc(CN)cc1 [Compound A, reference compound]	EC50	> 1000 nM

* * *

studyTarget: human TLR4 (Homo sapiens, UniProt O00206+Q9Y6Y9)
Sequence (O00206 24-839): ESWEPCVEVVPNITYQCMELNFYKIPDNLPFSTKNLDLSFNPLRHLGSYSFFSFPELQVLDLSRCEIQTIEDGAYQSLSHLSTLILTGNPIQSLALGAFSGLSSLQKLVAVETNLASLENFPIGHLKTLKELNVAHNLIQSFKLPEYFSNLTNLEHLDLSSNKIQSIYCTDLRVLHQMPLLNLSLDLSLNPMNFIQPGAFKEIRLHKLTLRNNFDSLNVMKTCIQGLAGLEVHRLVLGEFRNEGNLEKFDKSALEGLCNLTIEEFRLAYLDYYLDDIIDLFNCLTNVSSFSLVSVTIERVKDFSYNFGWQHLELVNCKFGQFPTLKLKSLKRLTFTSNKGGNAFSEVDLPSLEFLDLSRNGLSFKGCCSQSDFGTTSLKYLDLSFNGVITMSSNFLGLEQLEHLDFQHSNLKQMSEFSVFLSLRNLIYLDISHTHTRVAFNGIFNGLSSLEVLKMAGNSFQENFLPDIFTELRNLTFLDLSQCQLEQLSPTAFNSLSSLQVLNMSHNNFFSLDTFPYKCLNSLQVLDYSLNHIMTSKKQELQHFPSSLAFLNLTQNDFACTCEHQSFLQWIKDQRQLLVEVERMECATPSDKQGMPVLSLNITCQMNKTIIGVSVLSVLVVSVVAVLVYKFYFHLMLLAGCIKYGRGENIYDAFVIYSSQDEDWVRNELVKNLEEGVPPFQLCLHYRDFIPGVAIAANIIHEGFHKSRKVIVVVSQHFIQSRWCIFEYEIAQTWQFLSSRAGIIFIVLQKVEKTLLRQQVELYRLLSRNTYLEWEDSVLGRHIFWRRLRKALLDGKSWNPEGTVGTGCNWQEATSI
Sequence (Q9Y6Y9 17-160 limits assumed): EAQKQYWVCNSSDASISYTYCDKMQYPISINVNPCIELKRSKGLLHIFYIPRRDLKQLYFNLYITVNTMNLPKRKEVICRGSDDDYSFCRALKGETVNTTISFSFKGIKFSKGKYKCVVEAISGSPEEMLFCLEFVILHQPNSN
testDetails: HEK293 SEAP reporter assay, other TLRs (Biological Example 3)
measurementSetup: 16 hrs, up to 1 μM
Reported values of EC50 for individual entries
property: EC50

compound	property	obsValue
CCCCn1nc2c(N)nc3ccccc3c2c1Cc1ccc(CN)cc1	EC50	> 1000 nM
CCCCc1nc2c(N)nc3ccccc3c2n1Cc1ccc(CN)cc1 [Compound A, reference compound]	EC50	> 1000 nM

* * *

Reported values of pEC50 for individual entries
studyTarget: human TLR5 (Homo sapiens, UniProt O60602)
Sequence (O60602 21-858): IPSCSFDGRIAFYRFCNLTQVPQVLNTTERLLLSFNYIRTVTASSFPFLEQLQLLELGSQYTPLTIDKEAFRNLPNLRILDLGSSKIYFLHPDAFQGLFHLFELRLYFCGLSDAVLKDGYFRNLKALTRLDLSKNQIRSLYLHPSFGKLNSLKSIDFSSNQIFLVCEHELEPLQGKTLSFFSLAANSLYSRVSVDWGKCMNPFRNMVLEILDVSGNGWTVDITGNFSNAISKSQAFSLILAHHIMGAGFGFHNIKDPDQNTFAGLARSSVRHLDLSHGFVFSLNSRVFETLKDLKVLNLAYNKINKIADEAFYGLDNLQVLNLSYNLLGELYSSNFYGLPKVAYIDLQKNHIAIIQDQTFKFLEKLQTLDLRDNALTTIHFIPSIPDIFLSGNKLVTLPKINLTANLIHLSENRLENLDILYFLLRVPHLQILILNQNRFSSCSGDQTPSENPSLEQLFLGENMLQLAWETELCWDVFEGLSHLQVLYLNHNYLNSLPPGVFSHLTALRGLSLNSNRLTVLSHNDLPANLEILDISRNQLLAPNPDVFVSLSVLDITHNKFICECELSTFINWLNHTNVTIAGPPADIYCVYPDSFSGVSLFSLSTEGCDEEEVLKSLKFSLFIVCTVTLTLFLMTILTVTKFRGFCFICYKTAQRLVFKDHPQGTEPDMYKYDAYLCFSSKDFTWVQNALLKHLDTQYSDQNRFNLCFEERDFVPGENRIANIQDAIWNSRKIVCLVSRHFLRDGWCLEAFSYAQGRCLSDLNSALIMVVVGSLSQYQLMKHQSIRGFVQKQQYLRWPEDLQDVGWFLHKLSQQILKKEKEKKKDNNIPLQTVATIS
testDetails: HEK293 SEAP reporter assay, other TLRs (Biological Example 3)
measurementSetup: 16 hrs, up to 1 μM
pEC50: −log10 of the molar value.

compound	pEC50
CCCCc1nc2c(N)nc3ccccc3c2n1Cc1ccc(CN)cc1 [Compound A, reference compound]	< 6.00
CCCCn1nc2c(N)nc3ccccc3c2c1Cc1ccc(CN)cc1 [Compound 1]	< 6.00
